Ref: the supplement of paper PMC11451515

System: NOMO1
protocol_description: cell viability relative to DMSO control; higher = less cytotoxic
experimental_setup: RPMI 5 mM glucose + 10% FBS; 48 h; 1.71 µM
readout_type: cell viability

| compound | study_target | value |
| --- | --- | --- |
| O=C1[O][Pt]2([NH]C3CCCCC3[NH]2)[O]C1=O (configuration not stated) | NOMO1 | 107% |
| COc1cc2ncnc(Nc3ccc(F)c(Cl)c3)c2cc1OCCCN1CCOCC1 | NOMO1 | 100% |
| C[C@H]([C@H]1C\C(=C(CO)/C(=O)O1)C)[C@H]2CC[C@H]3[C@@H]4C[C@H]5O[C@]56[C@@H](O)\C=C/C(=O)[C@]6(C)[C@H]4CC[C@]23C | NOMO1 | 20.5% |
| COc1cc2c(NC3CCN(C(C)C)CC3)nc(C3CCCCC3)nc2cc1OCCCN1CCCC1 | NOMO1 | 114% |
| NC12CC3CC(CC(C3)C1)C2 | NOMO1 | 94.5% |
| CC1=C2N=C([NH]C2=CC(=C1)N3CCOCC3)\C4=C(NC[C@@H](O)C5=CC=CC(=C5)Cl)\C=C/NC4=O | NOMO1 | 73.7% |
| CC(C)(O)CNc1nc(Nc2ccnc(C(F)(F)F)c2)nc(-c2cccc(C(F)(F)F)n2)n1 | NOMO1 | 123% |
| CN(C)c1nc(N(C)C)nc(N(C)C)n1 | NOMO1 | 92.2% |
| CCCn1c(=O)c2[nH]c(C34CC5CC3C[C@@H](C5)C4)nc2n(CCC)c1=O | NOMO1 | 97.2% |
| O=P(O)(O)C(O)(Cc1cccnc1)P(=O)(O)[O][Na] (configuration not stated) | NOMO1 | 84.7% |
| Cc1cc(SCc2sc(-c3ccc(C(F)(F)F)c(F)c3)nc2C)ccc1OCC(=O)O | NOMO1 | 88.8% |
| CCc1cc(/C(C)=N/OCc2ccc(C3CCCCC3)c(C(F)(F)F)c2)ccc1CN1CC(C(=O)O)C1 | NOMO1 | 107% |
